Please respond with reported Ki for every item in the list.
# system under test: 5-hydroxytryptamine receptor 1A (Rattus norvegicus); also: in other assays of this panel Not Active means under 50% inhibition at 10 µM
# Sequence (P19327 whole entry): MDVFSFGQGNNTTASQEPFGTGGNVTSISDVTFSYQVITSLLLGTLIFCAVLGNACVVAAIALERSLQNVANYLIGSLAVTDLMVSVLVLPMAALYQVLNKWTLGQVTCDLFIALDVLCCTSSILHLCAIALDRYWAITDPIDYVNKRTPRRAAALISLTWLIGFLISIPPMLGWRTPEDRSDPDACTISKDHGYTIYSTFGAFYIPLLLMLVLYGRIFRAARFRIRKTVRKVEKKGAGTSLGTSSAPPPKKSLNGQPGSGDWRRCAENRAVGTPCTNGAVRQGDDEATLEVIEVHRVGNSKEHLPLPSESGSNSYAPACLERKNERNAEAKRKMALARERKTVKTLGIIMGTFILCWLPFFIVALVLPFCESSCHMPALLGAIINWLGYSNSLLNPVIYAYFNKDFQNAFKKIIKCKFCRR
# Assay type: cell membranes, CHO-K1, Membrane
# details: read-out: Ki

// compound CCCCCCCCNC(C)C(O)c1ccc(SC(C)C)cc1 (centres undefined) , assay 5-hydroxytryptamine receptor 1A (Rattus norvegicus), Ki value: 311 nM

// compound CC(C)C[C@H]1C(=O)N2CCC[C@H]2[C@]2(O)O[C@](NC(=O)[C@@H]3C=C4c5cccc6[nH]cc(c56)C[C@H]4N(C)C3)(C(C)C)C(=O)N12 , assay 5-hydroxytryptamine receptor 1A (Rattus norvegicus), Ki value: 1.5 nM

// compound CN1CCC(=C2c3ccccc3CC(=O)c3sccc32)CC1 , assay 5-hydroxytryptamine receptor 1A (Rattus norvegicus), Ki value: 1450 nM

// compound Clc1ccc(COC(Cn2ccnc2)c2ccc(Cl)cc2Cl)c(Cl)c1 (centres undefined) , assay 5-hydroxytryptamine receptor 1A (Rattus norvegicus), Ki value: 6560 nM

----------
# system under test: UniProt P05181
# Sequence (P05181 whole entry): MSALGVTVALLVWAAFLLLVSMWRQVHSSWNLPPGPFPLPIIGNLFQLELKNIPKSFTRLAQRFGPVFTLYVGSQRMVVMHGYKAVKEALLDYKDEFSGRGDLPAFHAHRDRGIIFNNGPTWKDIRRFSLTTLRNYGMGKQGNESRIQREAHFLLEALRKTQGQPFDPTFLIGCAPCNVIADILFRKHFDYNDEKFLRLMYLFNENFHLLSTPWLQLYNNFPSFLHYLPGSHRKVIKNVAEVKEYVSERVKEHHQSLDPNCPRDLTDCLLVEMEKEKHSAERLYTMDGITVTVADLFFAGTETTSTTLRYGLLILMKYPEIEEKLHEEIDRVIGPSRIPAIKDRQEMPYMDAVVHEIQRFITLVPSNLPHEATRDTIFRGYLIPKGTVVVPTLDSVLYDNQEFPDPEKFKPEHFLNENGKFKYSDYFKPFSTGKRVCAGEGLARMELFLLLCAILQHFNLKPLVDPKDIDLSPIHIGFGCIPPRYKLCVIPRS
# details: bti-tn-5b1-4
observation type: Ki

[[record]]
compound = "CC1CCC(NC(=O)N(CCCl)N=O)CC1 (stereo not drawn)"
system_under_test = "UniProt P05181"
result = "Not Active"

[[record]]
compound = "CC[C@H]1[C@@H]2C[C@H]3[C@@H]4N(C)c5ccccc5[C@]45C[C@@H]([C@@H]2[C@H]5O)N3[C@@H]1O"
system_under_test = "UniProt P05181"
result = "Not Active"

[[record]]
compound = "CCCNC(=O)NS(=O)(=O)c1ccc(Cl)cc1 [CHLORPROPAMIDE]"
system_under_test = "UniProt P05181"
result = "Not Active"


----------
Please respond with reported Ki for every item in the list.
# system under test: 5-hydroxytryptamine receptor 2B (Homo sapiens); also: in other assays of this panel Not Active means under 50% inhibition at 10 µM
# Sequence (P41595 whole entry): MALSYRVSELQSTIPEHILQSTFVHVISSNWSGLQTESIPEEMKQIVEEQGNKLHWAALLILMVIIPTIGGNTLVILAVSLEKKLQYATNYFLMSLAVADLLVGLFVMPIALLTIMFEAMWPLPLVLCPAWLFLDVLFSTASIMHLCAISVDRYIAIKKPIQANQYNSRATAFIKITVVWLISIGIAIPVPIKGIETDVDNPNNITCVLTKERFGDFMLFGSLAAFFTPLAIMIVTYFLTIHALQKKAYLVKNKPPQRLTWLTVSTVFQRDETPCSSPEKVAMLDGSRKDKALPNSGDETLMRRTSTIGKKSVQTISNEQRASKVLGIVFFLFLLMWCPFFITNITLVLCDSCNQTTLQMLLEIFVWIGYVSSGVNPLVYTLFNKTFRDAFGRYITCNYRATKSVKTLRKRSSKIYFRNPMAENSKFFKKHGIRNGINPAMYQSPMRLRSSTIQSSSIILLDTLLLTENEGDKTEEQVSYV
# Assay type: cell membranes, CHO-K1, Membrane
# details: read-out: Ki
Answer with a number only, understood to be in nM.

// compound Cc1cc(O)cc(C)c1Cl [CHLOROXYLENOL] , assay 5-hydroxytryptamine receptor 2B (Homo sapiens), Ki value: 1180

// compound CN1[C@@H]2CC[C@H]1C[C@@H](OC(c1ccccc1)c1ccccc1)C2 [BENZTROPINE] , assay 5-hydroxytryptamine receptor 2B (Homo sapiens), Ki value: 127

// compound CC(C)C[C@H]1C(=O)N2CCC[C@H]2[C@]2(O)O[C@](NC(=O)[C@@H]3C=C4c5cccc6[nH]cc(c56)C[C@H]4N(C)C3)(C(C)C)C(=O)N12 [ERGOCRYPTINE] , assay 5-hydroxytryptamine receptor 2B (Homo sapiens), Ki value: 8.22

// compound CN1CCCC(CN2c3ccccc3Sc3ccccc32)C1 (stereo not given) [MEPAZINE] , assay 5-hydroxytryptamine receptor 2B (Homo sapiens), Ki value: 327

// compound Clc1ccc(COC(Cn2ccnc2)c2ccc(Cl)cc2Cl)c(Cl)c1 (stereo not given) [MICONAZOLE] , assay 5-hydroxytryptamine receptor 2B (Homo sapiens), Ki value: 3530

----------
# system under test: Cytochrome P450 3A4 (Homo sapiens, UniProt P08684); also: in other assays of this panel Not Active means under 50% inhibition at 10 µM
# Sequence (P08684 whole entry): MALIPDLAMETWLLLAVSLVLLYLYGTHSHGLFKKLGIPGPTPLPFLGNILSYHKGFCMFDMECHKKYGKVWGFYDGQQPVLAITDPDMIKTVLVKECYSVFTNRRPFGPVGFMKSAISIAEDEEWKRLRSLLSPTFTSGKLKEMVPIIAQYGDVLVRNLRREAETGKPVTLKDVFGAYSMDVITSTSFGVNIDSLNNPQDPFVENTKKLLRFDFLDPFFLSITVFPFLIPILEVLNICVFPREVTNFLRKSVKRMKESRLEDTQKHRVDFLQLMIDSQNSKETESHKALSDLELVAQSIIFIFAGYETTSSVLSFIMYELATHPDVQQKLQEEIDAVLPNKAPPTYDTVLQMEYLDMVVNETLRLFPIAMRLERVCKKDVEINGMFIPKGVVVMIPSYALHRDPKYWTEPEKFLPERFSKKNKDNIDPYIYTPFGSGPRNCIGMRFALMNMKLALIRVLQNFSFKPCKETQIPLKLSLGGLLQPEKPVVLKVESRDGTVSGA
# details: bti-tn-5b1-4
observation type: Ki

Some compounds with recorded Ki:
[[record]]
compound = "CN1C(=O)CN=C(c2ccccc2)c2cc([N+](=O)[O-])ccc21"
observation_type = "Ki"
result = "Not Active"

[[record]]
compound = "CCn1cc(C(=O)O)c(=O)c2cc(F)c(N3CCNC(C)C3)c(F)c21 (configuration not stated)"
observation_type = "Ki"
result = "Not Active"

[[record]]
compound = "CC(=O)OCC(COC(C)=O)OC(C)=O"
observation_type = "Ki"
result = "Not Active"

[[record]]
compound = "C[C@]12CC[C@H]3[C@@H](CCC4=CC(=O)CC[C@@H]43)[C@@H]1CC[C@@H]2O"
observation_type = "Ki"
result = "Not Active"

[[record]]
compound = "C#C[C@]1(O)CC[C@H]2[C@@H]3CCC4=CC(=O)CC[C@]4(C)[C@H]3CC[C@@]21C"
observation_type = "Ki"
result = "Not Active"

[[record]]
compound = "CCN(CC)CCCC(C)Nc1c2ccc(Cl)cc2nc2ccc(OC)cc12 (configuration not stated)"
observation_type = "Ki"
result = "Not Active"


Kindly consider the entry below.
// compound CN(C)C(=O)C(CCN1CCC(O)(c2ccc(Cl)cc2)CC1)(c1ccccc1)c1ccccc1 [LOPERAMIDE] , assay Cytochrome P450 3A4 (Homo sapiens, UniProt P08684), Ki value: Not Active

----------
# system under test: Progesterone receptor (Bos taurus)
# Sequence (Q690N0 whole entry): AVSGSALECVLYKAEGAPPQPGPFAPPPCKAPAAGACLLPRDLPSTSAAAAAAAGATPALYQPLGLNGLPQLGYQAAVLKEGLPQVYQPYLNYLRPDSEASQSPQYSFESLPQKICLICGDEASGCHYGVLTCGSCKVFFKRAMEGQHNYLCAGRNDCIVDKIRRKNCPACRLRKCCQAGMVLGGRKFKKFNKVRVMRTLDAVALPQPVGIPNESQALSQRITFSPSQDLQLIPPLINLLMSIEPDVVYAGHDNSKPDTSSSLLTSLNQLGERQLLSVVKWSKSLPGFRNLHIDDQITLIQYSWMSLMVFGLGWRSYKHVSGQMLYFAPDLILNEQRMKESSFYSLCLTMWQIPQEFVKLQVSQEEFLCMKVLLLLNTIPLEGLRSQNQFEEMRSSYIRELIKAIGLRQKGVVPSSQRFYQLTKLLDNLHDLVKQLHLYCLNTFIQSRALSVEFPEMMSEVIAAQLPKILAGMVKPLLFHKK
# protocol details: DRUGMATRIX: Progesterone radioligand binding (ligand: [3H] R-5020)
# Type: tissue-based, Uterus
# details: Not Active = under 50% inhibition at 10 µM
observation type: IC50

Some compounds with recorded IC50:
[[record]]
compound = "C[S+]([O-])c1ccc(-c2nc(-c3ccncc3)c(-c3ccc(F)cc3)[nH]2)cc1 (stereo not drawn)"
observation_type = "IC50"
result = "Not Active"

[[record]]
compound = "CCOC(=O)c1ncn2c1CN(C)C(=O)c1cc(F)ccc1-2"
observation_type = "IC50"
result = "Not Active"

[[record]]
compound = "N[C@@H](Cn1ccc(=O)c(O)c1)C(=O)O"
observation_type = "IC50"
result = "Not Active"

[[record]]
compound = "CN(C)C(=N)NC(=N)N"
observation_type = "IC50"
result = "Not Active"

[[record]]
compound = "CC[C@]1(O)C[C@@H]2CN(CCc3c([nH]c4ccccc34)[C@@](C(=O)OC)(c3cc4c(cc3OC)N(C)[C@H]3[C@@](O)(C(N)=O)[C@H](O)[C@]5(CC)C=CCN6CC[C@]43[C@@H]65)C2)C1"
observation_type = "IC50"
result = "Not Active"

[[record]]
compound = "CN1[C@@H]2CC[C@H]1C[C@@H](OC(c1ccccc1)c1ccccc1)C2"
observation_type = "IC50"
result = "Not Active"


// compound Oc1ccc2c3c1O[C@H]1[C@@H](O)CC[C@@]4(O)[C@@H](C2)N(CC2CCC2)CC[C@]314 , assay Progesterone receptor (Bos taurus), IC50 value: Not Active

// compound COc1cccc2c1C(=O)c1c(O)c3c(c(O)c1C2=O)C[C@@](O)(C(C)=O)C[C@@H]3O[C@H]1C[C@H](N)[C@H](O)[C@H](C)O1 , assay Progesterone receptor (Bos taurus), IC50 value: Not Active

----------
# system under test: Protein phosphatase 3 catalytic subunit alpha (Homo sapiens); also: in other assays of this panel Not Active means under 50% inhibition at 10 µM;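 also: inhibition of calcineurin (PP2B) enzyme activity, measured with DiFMUP as the substrate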
# Design: species or system Escherichia coli
observation type: IC50

[[record]]
molecule = "CN1C(=O)CN=C(c2ccccc2)c2cc([N+](=O)[O-])ccc21 [NIMETAZEPAM]"
result = "Not Active"

[[record]]
molecule = "C[C@H]1[C@H](NC(=O)/C(=N\\OC(C)(C)C(=O)O)c2csc(N)n2)C(=O)N1S(=O)(=O)O [AZTREONAM]"
result = "Not Active"

[[record]]
molecule = "COc1ccccc1N"
result = "Not Active"


----------
# system under test: Melanocortin receptor 3 (Homo sapiens, UniProt P41968); also: in other assays of this panel Not Active means under 50% inhibition at 10 µM
# Sequence (P41968 whole entry): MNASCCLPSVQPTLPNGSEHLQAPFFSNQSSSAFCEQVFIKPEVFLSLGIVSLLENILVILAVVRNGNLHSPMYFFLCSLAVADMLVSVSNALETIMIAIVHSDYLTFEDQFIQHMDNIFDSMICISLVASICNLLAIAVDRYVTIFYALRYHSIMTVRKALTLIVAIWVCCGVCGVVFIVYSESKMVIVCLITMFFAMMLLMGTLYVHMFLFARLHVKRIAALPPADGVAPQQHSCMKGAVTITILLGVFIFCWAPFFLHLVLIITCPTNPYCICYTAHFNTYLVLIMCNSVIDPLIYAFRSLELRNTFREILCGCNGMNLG
# Format: cell membranes, Membrane
# details: hek293
observation type: IC50

[[record]]
compound = "CCn1cc(C(=O)O)c(=O)c2cc(F)c(N3CCNC(C)C3)c(F)c21 (stereo not drawn) [LOMEFLOXACIN]"
system_under_test = "Melanocortin receptor 3 (Homo sapiens, UniProt P41968)"
result = "Not Active"

[[record]]
compound = "CS(=O)(=O)Nc1ccc([N+](=O)[O-])cc1Oc1ccccc1 [NIMESULIDE]"
system_under_test = "Melanocortin receptor 3 (Homo sapiens, UniProt P41968)"
result = "Not Active"

[[record]]
compound = "O=C(O)c1ccccc1O [SALICYLIC ACID]"
system_under_test = "Melanocortin receptor 3 (Homo sapiens, UniProt P41968)"
result = "Not Active"


----------
# protocol details: DRUGMATRIX: Imidazoline I2, Central radioligand binding (ligand: [3H] Idazoxan)
# Assay type: cell membranes, Rattus norvegicus, Wistar, Cerebral cortex, Membrane
# details: Not Active = under 50% inhibition at 10 µM; read-out: IC50
pIC50: −log10 of the molar value.
Kind request: treat 6 as inclusive, so pIC50 at 6 or higher is yes (1), anything lower is no (0).

Input: Check this compound for pIC50 at or above 6: N=C(N)c1ccc(OCCCCCOc2ccc(C(=N)N)cc2)cc1
Output: no (0)

Input: Check this compound for pIC50 at or above 6: CN(C)CCC=C1c2ccccc2CCc2ccccc21
Output: no (0)

Input: Check this compound for pIC50 at or above 6: CC(C)C[C@H]1C(=O)N2CCC[C@H]2[C@]2(O)O[C@](NC(=O)[C@@H]3C=C4c5cccc6[nH]cc(c56)C[C@H]4N(C)C3)(C(C)C)C(=O)N12
Output: yes (1)

Input: Check this compound for pIC50 at or above 6: CN1CCN(C(c2ccccc2)c2ccccc2)CC1
Output: no (0)
